Source: PubChem BioAssay (NCI)

system: COLO 205 colon; test: NCI tumour cell line growth inhibition, 48 h
readout-type: TGI (µM)
Write it as a number; the unit µM goes unstated.

Need TGI, item COc1cc(C(=O)/C=C/c2c(-c3cccs3)nc3sccn23)cc(OC)c1OC
3.32

And OCN(CO)c1ccc2c(c1)Cc1cc(F)ccc1-2 ?
24.9

And O=[N+]([O-])c1cc([N+](=O)[O-])c(NN=C(c2ccc(O)cc2)c2ccc(O)cc2)cc1Cl ?
5.31

And COc1ccccc1/C=C/C(=O)c1ccc(Nc2nc(Nc3ccc(F)cc3)nc(Nc3ccc(F)cc3)n2)cc1 ?
55.1

====

Kindly state TGI for each of the entries shown.
tested on: MCF7 breast; assay: NCI tumour cell line growth inhibition, 48 h

Need TGI, item COc1cccc(-c2nnc3c(-c4ccccc4)nc4ccccc4n23)c1
> 100 µM

And CO[C@H]1/C=C/[C@@](C)(O)/C=C/C(=O)O[C@H](C)[C@@H](C)CC/C=C/1C ?
56 µM

And CC(c1ccccc1)N1C(=O)CSC1=S (stereo not drawn) ?
13.7 µM

And COc1ccccc1-c1cc(=O)c2c(C)cc(C)nc2[nH]1 ?
> 100 µM

And COC(=O)[C@]1(C)CC[C@]2(C)CC[C@]3(C)C4[C@H]5Oc6c(cc7c(c6C)CCC6[C@@]7(C)CC[C@@]7(C)C8[C@](C)(CCC[C@@]8(C)C(=O)OC)CC[C@]67C)O[C@H]5c5c(cc6c(c5C)O[C@@]5(C)C7=CC=C8[C@@](C)(CC[C@@]9(C)[C@@H]%10C[C@](C)(C(=O)OC)CC[C@]%10(C)CC[C@]89C)C7=CC(=O)[C@@]5(O)O6)[C@]4(C)CC[C@@]3(C)C2C1 (stereo partly drawn) ?
9.73 µM

And COc1ccc(NC2C(=O)C3(C)CCC2C3(C)C)cc1 (stereo not drawn) ?
> 100 µM

And COc1cc(Nc2cc(O)c3c(=O)cc(-c4ccccc4)oc3c2)cc(OC)c1 ?
> 100 µM

And CN(C)/C=N/S(=O)(=O)c1nn2c(C=O)c(-c3ccccc3)nc2s1 ?
> 100 µM

====

system: BT-549 breast; assay: NCI tumour cell line growth inhibition, 48 h
readout-type: GI50

Need GI50, item C=C1C(O)C2C(=C(CC(C)C)C13CC3)C(=O)C(C)(C)C2O (stereo unspecified)
> 100 µM

And COc1ccc(-c2cc(C(=O)N3N=C(c4ccc(N)cc4)CC3c3ccc(Cl)cc3)c3ccccc3n2)cc1 (stereo unspecified) ?
2.04 µM

And N#Cc1cc(-c2ccnc(Nc3ccc(NC(=O)CCl)cc3)n2)ccc1N1CCCC1 ?
0.708 µM

And O=C1NC(=O)/C(=C/c2ccc3ncccc3c2)S1 ?
> 25 µM

And COc1cc(Nc2ncc3c(C)nc(-c4cccc(C(F)(F)F)c4)n3n2)cc(OC)c1OC ?
4.05 µM

And CN(C)CCCNc1nc2ccccc2c2c(=O)c3cc(F)ccc3sc12 ?
10.1 µM

And O=C1C(=O)/C(=C/c2ccccc2)CCCCCC/C1=C/c1ccccc1 ?
2.33 µM

And CCCCN1C=CCN(CCCC)C1 ?
> 100 µM

And CCC(=O)OCC1OC(n2cnc3c(=S)nc(N)[nH]c32)C(OC(=O)CC)C1OC(=O)CC (stereo unspecified) ?
5.42 µM

And C=C(C)[C@@H]1/C=C(/C(C)C)CC[C@@]2(C)OC2CC[C@H](C)CC1=O (stereo partly specified) ?
38.8 µM

And CC(c1ccccc1)N1C(=O)CSC1=S (stereo unspecified) ?
2.46 µM
